This section lists IC50 readings for mouse 11β-HSD1 (Mus musculus, UniProt P50172).
Observed Property: IC50 (nM)

Before answering, review these 10 worked examples.
Compound	Observed Property	Unit Text	Value Observed
Cc1c(COCO)oc2c1C(=O)C(=O)c1c-2ccc2c1CCCC2(C)C [Compound 28a]	IC50	nM	79.3
CC1(C)C(=O)C=Cc2c1ccc1c2C(=O)C(=O)c2c(CO)coc2-1	IC50	nM	67.2
C[C@H]1COC2=C1C(=O)C(=O)c1c2ccc2c1CCCC2(C)C	IC50	nM	41.8
Cc1coc2c1C(=O)C(=O)c1c-2ccc2c1CCCC2(C)C	IC50	nM	32.2
Cc1c(CN(C)C)oc2c1C(=O)C(=O)c1c-2ccc2c1CCCC2(C)C [Compound 29a]	IC50	nM	17.1
Cc1coc2c1C(=O)C(=O)c1c-2ccc2c1C=CCC2(C)C	IC50	nM	59.3
Cc1coc2c1C(=O)C(=O)c1c-2ccc2c1CCC(O)C2(C)C (stereo not shown)	IC50	nM	72.9
Cc1c(CN2CCCCC2)oc2c1C(=O)C(=O)c1c-2ccc2c1CCCC2(C)C [Compound 29b]	IC50	nM	65.5
CC(=O)OC1CCc2c(ccc3c2C(=O)C(=O)c2c(C)coc2-3)C1(C)C (stereo not shown)	IC50	nM	10.1
Cc1coc2c1C(=O)C(=O)c1ccccc1-2	IC50	nM	66.5

(1) Cc1c(-c2ccncc2)oc2c1C(=O)C(=O)c1c-2ccc2c1CCCC2(C)C [Compound 27c]
(2) Cc1c(CO)oc2c1C(=O)C(=O)c1c-2ccc2c1CCCC2(C)C [Compound 28b]
Enquiry: Quick check, higher IC50 between 1 and 2 ? In your reply, give the label of the chosen option.
Return: 2
(2: 70.2 nM, 1: 6.9 nM)

(a) Cc1c(CN2CCN(C)CC2)oc2c1C(=O)C(=O)c1c-2ccc2c1CCCC2(C)C [Compound 29d]
(b) CC1(C)CCCc2c1ccc1c2C(=O)C(=O)c2c(CNc3ccccc3)coc2-1 [Compound 31a]
Enquiry: Quick check, higher IC50 between a and b ? In your reply, give the label of the chosen option.
Return: a
(a: 272 nM, b: 56.6 nM)

(1) CC1(C)CCCc2c1ccc1c2C(=O)C(=O)c2c(CO)coc2-1
(2) Cc1coc2c1C(=O)C(=O)c1c-2ccc2c1[C@H](O)[C@@H](O)CC2(C)C (racemic) [Compound 18a]
Enquiry: Looking only at measured IC50, which entry is lower, 1 or 2 ? In your reply, give the label of the chosen option.
Return: 1
(1: 22.2 nM, 2: 138 nM)
